experiment notes: Plasma pharmacokinetics after single oral doses in the PET studies
Assay type: in vivo, human
cond: AZD6280 single oral dose 30 mg; individual subjects; read-out: C max
Method: Venous blood samples for determination of drug plasma concentrations were collected at approximately 15 min before [^11C]flumazenil injection and at 15 and 30 min and 3, 4, 6, 8, 10, 12, 16, 24, 36, and 48 h after drug administration, including three samples during PET measurement, at 1, 1.30, and 2 h after drug administration. […]
test readout: Cmax (nM)
Entry rule: numbers only, all in nM.

Look up Cmax: CCCNC(=O)c1nnc2c(-c3cc(OC)ccc3OC)cccc2c1N [AZD6280]
731

* * *

experiment notes: Plasma pharmacokinetics after single oral doses in the PET studies
Assay type: in vivo, human
cond: human, plasma, po, 20 mg, AZD6280 single oral dose 20 mg; individual subject; read-out: C max
test readout: Cmax (nM)
Return type: number; implicit unit nM.

Could you share which Cmax value was measured for CCCNC(=O)c1nnc2c(-c3cc(OC)ccc3OC)cccc2c1N ?
677

* * *

experiment notes: Plasma pharmacokinetics after single oral doses in the PET studies
Assay type: in vivo, human
cond: human, plasma, po, 30 mg, AZD7325 single oral dose 30 mg; individual subject; read-out: C max
test readout: Cmax (nM)
Write it as a number; the unit nM goes unstated.

Entry CCCNC(=O)c1nnc2c(-c3c(F)cccc3OC)cccc2c1N : reported Cmax = ?
308

* * *

experiment notes: Plasma pharmacokinetics after single oral doses in the PET studies
Format: in vivo, human
cond: human, plasma, po, 20 mg, AZD7325 single oral dose 20 mg; individual subjects; read-out: C max
test readout: Cmax
Remember to quote the unit after the number.

Which Cmax value belongs to CCCNC(=O)c1nnc2c(-c3c(F)cccc3OC)cccc2c1N ?
213 nM

* * *

experiment notes: Plasma pharmacokinetics after single oral doses in the PET studies
Format: in vivo, human
cond: human, plasma, po, 0.2 mg, AZD7325 single oral dose 0.2 mg; individual subjects
test readout: Tmax (min)
Answer format: numeric, min implied, no suffix.

# lookup: Tmax of CCCNC(=O)c1nnc2c(-c3c(F)cccc3OC)cccc2c1N
30

* * *

experiment notes: Plasma pharmacokinetics after single oral doses in the PET studies
Assay type: in vivo, human
cond: AZD7325 single oral dose 0.2 mg; individual subjects; read-out: C max
test readout: Cmax (nM)
Express your answer in nM, writing the number without its unit.

Would you kindly share the measured Cmax for CCCNC(=O)c1nnc2c(-c3c(F)cccc3OC)cccc2c1N ?
4.12

* * *

assay target: GABAA receptors (benzodiazepine binding site)
experiment notes: PET with [11C]flumazenil (HRRT): GABAA receptor occupancy
cond: read-out: K i,plasma (plasma concentration required for 50% receptor occupancy); hyperbolic fit of occupancy vs C av,PET; regional data fitted simultaneously
test readout: pKi
Please treat pKi as minus the base-10 logarithm of the molar concentration.

For the compound shown here, CCCNC(=O)c1nnc2c(-c3cc(OC)ccc3OC)cccc2c1N [AZD6280] , give the reported pKi.
6.36

* * *

experiment notes: Plasma pharmacokinetics after single oral doses in the PET studies
Format: in vivo, human
cond: human, plasma, po, 20 mg, AZD6280 single oral dose 20 mg; individual subject
test readout: Tmax (h)
Could you give me the number in h? Just the number is fine.

Record request: Tmax value, item CCCNC(=O)c1nnc2c(-c3cc(OC)ccc3OC)cccc2c1N
1.6

* * *

experiment notes: Plasma pharmacokinetics after single oral doses in the PET studies
Type: in vivo, human
cond: human, plasma, po, 30 mg, AZD7325 single oral dose 30 mg; individual subject
test readout: Tmax (h)
Give the value in h but do not write h after it.

Data request, read-out Tmax, for CCCNC(=O)c1nnc2c(-c3c(F)cccc3OC)cccc2c1N [AZD7325]
2.2
